Assay: HSF-1 activators, primary screen, NIH3T3-HGL cells, MG132 stress, luminescence, single point (AID 504408);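 note: 0% = median of the neutral control wells and 100% = twice that signal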
Details: NIH3T3-HGL HSF-1 luciferase reporter, MG132, 8 h; at 9 µM; stronger effect = higher value; 100% = twice DMSO control signal
About 5,200 (1.7%) of roughly 300,000 compounds were called active. Many of the other results were omitted from the sample, so actives are more common in it than they were.
MEASURE NAME: activation (%)
A number alone suffices; assume %.

The cases that follow already have their activation on record.
COc1ccc(-c2nc3ccccc3c(=O)n2CCc2ccc(O)cc2)cc1 : 29.5
O=C(OCc1ccc(-c2ccccc2)cc1)c1cccc(O)c1 : 6.99
CC(C)(C)N1C(=O)[C@H]2[C@@H](c3ccc(Br)cc3)N3C(=O)N(c4cccc(Cl)c4)C(=O)[C@@]3(C)[C@H]2C1=O : -6
COc1ccc(C2NC(=O)c3ccccc3N2)cc1 (stereo not given) : 73.7
CCN(CC)CCn1c2c(c(SCC(=O)Nc3ccc(C(C)C)cc3)nc1=O)CCC2 : 8.29

-- ask Supply measured activation of O=C1NC(c2cccc(Cl)c2)Nc2ccccc21 (stereo not given) in your reply.
-- reply 19.4

-- ask Supply measured activation of C=CCN1C(=O)C(Cc2cccc(Cl)c2)S/C1=N/N=C/c1ccco1 (stereo not given) in your reply.
-- reply 23.1

-- ask Supply measured activation of Oc1ccc(-c2cccc(-c3ccc(O)cc3)c2)cc1 in your reply.
-- reply 62

-- ask Supply measured activation of COc1ccc(-c2c(C#Cc3ccccc3)c3ccccc3n2C)cc1 in your reply.
-- reply 64.2

-- ask Supply measured activation of CC(C)Oc1ccc(S(=O)(=O)N2CCOCC2)cc1NC(=O)C1CSC2(C)CCC(=O)N12 (stereo not given) in your reply.
-- reply 0.413
